target: PI3K delta (Homo sapiens, UniProt O00329); construct: for the full-length p110-d subunit are generated and fused by overlapping PCR; p85(iSH2) fusion partner (see partner chain) (N); His tag (C); Tn5 (Trichoplusia ni) or TiniPro insect cells; assay: PI3K delta kinase assay (Kinase-Glo luminescence)
Sequence (O00329 with tags, fused parts or gaps limits assumed): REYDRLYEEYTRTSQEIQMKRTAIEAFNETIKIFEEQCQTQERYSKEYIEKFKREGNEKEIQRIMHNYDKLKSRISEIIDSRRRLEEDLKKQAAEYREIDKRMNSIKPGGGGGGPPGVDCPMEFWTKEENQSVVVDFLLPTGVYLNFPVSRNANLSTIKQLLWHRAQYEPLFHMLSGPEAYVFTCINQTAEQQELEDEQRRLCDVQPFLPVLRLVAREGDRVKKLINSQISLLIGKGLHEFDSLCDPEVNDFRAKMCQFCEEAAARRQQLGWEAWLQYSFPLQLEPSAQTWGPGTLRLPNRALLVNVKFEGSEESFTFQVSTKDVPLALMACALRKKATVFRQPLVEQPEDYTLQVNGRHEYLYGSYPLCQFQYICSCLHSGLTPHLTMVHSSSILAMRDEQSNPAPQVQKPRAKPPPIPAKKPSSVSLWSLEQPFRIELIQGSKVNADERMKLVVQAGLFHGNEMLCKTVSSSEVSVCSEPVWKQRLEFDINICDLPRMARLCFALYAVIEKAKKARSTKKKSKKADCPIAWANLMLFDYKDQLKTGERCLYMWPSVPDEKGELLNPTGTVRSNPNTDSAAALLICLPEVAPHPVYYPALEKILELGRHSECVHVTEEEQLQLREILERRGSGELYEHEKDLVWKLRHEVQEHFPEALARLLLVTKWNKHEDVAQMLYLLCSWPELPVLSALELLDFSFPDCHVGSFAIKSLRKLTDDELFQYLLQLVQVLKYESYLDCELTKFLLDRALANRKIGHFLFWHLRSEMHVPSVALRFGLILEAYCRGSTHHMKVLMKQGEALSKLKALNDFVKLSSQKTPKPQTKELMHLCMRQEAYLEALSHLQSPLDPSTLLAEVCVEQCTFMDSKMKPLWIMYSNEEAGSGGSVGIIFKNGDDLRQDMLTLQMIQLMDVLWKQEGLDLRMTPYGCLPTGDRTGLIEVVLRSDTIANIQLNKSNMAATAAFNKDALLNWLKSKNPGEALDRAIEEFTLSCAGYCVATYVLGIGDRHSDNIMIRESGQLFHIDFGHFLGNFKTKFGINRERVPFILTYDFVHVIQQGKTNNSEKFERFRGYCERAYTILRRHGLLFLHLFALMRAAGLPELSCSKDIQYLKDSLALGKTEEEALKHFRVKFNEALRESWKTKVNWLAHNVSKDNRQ
Output 1 (yes) for records whose IC50 is lower than 20 nM, 0 (no) for records at or above 20 nM.

## Task Given the entry Cc1nn(C(C)C)cc1-n1c(=O)n(C)c2cnc3ccc(-c4cnc(N)c(F)c4)cc3c21 [Example 142.3] , would its reported IC50 be below 20 nM?
## Result 1 (yes)

## Task A record lists CCNc1cc(-c2ccc3ncc4c(c3c2)n(-c2cn(C)nc2Cl)c(=O)n4C)cnc1C [Example 87.2] . Is its IC50 below 20 nM?
## Result 1 (yes)

## Task is_below(IC50, 20 nM) for COc1ncc(-c2ccc3ncc4c(c3c2)n(-c2cn(C)nc2Cl)c(=O)n4C)cn1 [Example 17.3] ?
## Result 1 (yes)

## Task Please let me know if Cc1ncc(-c2ccc3ncc4c(c3c2)n(-c2cn(C)nc2Cl)c(=O)n4C)cc1N [Example 88.1] shows IC50 below 20 nM.
## Result 1 (yes)

## Task Identify whether the molecule CNc1ncc(-c2ccc3ncc4c(c3c2)n(-c2c(C)noc2C)c(=O)n4C)cc1Cl [Example 146.6] records IC50 below 20 nM.
## Result 1 (yes)

## Task Lab note: IC50 threshold 20 nM. Does this molecule come in strictly under it? Cc1nn(C)cc1-n1c(=O)n(C)c2cnc3ccc(-c4cnc5c(c4)nnn5C)cc3c21 [Example 72]
## Result 0 (no)

## Task State whether 20 nM exceeds IC50 recorded for CCOc1ccc(-c2ccc3ncc4c(c3c2)n(-c2cn(CCOC)nc2C)c(=O)n4C)cn1 [Example 131] .
## Result 0 (no)

## Task Problem: For the molecule CCn1cc(-n2c(=O)n(C)c3cnc4ccc(-c5cnc(F)c(NC)c5)cc4c32)c(C)n1 [Example 150.1] , is IC50 under 20 nM?
## Result 1 (yes)

## Task Lab log: compare recorded IC50 with 20 nM; is it strictly lower for Cn1cc(-n2c(=O)n(C)c3cnc4ccc(-c5cncc(C(C)(C)C#N)c5)cc4c32)c(Cl)n1 [Example 220.3] ?
## Result 1 (yes)

## Task hey, is IC50 for CCn1cc(-n2c(=O)n(C)c3cnc4ccc(-c5cnc(N(C)C)nc5)cc4c32)c(C)n1 [Example 6.4] lower than 20 nM or not?
## Result 0 (no)

## Task Answer whether the molecule CCNc1cc(-c2ccc3ncc4c(c3c2)n(-c2c(C)nn(CCOC)c2C)c(=O)n4C)cnc1C [Example 87.4] has IC50 strictly less than 20 nM
## Result 1 (yes)

## Task Lab log: compare recorded IC50 with 20 nM; is it strictly lower for Cc1nn(C)cc1-n1c(=O)n(C)c2cnc3ccc(-c4cnc5c(c4)ncn5C)cc3c21 [Example 74] ?
## Result 0 (no)

## Task For this molecule, is IC50 lower than 20 nM? Cc1ccc(-c2ccc3ncc4c(c3c2)n(-c2cc(C)nn2C)c(=O)n4C)cn1 [Example 7.1]
## Result 0 (no)

## Task Bench note: check whether CNc1cc(-c2ccc3ncc4c(c3c2)n(-c2c(C)nn(C)c2C)c(=O)n4C)cnc1CO [Example 158.4] shows IC50 below 20 nM
## Result 1 (yes)

## Task Does Cc1nn(C)cc1-n1c(=O)n(C)c2cnc3ccc(-c4ccc(N5CCC5)nc4)cc3c21 [Example 5.1] have IC50 strictly under 20 nM?
## Result 0 (no)

## Task IC50 strictly < 20 nM for this molecule? CNc1ccc(-c2ccc3ncc4c(c3c2)n(-c2cn(C)nc2Cl)c(=O)n4C)cn1 [Example 118.5]
## Result 1 (yes)
